# assayedSystem: recombinant human PAD4 (human, UniProt Q9UM07 1-663)
# Sequence (Q9UM07 whole entry): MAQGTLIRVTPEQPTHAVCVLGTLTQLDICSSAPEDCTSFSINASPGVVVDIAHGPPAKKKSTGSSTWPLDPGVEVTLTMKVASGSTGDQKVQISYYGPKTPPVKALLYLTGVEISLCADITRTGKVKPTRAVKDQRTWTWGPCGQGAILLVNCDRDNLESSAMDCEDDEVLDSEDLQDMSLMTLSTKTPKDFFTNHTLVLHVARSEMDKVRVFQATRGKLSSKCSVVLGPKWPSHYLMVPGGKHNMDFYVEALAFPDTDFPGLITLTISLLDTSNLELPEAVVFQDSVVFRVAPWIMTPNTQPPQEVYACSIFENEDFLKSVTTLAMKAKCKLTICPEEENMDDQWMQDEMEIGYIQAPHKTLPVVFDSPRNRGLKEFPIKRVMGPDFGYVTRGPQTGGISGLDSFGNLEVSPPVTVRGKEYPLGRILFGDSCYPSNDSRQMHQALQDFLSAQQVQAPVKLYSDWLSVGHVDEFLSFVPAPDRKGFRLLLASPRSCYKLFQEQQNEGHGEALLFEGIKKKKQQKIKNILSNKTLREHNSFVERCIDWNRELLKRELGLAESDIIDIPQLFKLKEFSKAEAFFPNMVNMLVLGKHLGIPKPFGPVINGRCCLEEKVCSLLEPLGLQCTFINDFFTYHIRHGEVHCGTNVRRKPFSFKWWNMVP
# experiment: cell-based or functional assay
Square brackets hold non-standard residues; d marks the D form. * marks the point of attachment. Orn(fluoroacetimidoyl) = N=C(CF)NCCC[C@H](N)C(=O)O; 2Naphthylsulfonyl = O=S(=O)(c1ccc2ccccc2c1)*; AEEA = NCCOCCOCC(=O)O
valueKind: Inhibition of PAD4: value at 10 µM inhibitor (0 µM: 67) (%)
Report the value in % with no unit label.

Dear colleague, I am looking for the recorded Inhibition of PAD4: value at 10 µM inhibitor (0 µM: 67) of the following binder: 2Naphthylsulfonyl-KWH[Orn(fluoroacetimidoyl)]DFF[AEEA]-NH2 (SMILES N=C(CF)NCCC[C@H](NC(=O)[C@H](Cc1c[nH]cn1)NC(=O)[C@H](Cc1c[nH]c2ccccc12)NC(=O)[C@H](CCCCN)NS(=O)(=O)c1ccc2ccccc2c1)C(=O)N[C@@H](CC(=O)O)C(=O)N[C@@H](Cc1ccccc1)C(=O)N[C@@H](Cc1ccccc1)C(=O)NCCOCCOCC(N)=O) [0837-28FA]
37
